test system: AGS; experiment: Viability of human AGS cells under hypoxic conditions after 24 hrs by MTT assay; assay type: functional, cell-based
Provide the reported IC50 of each item.
One number for each entry, in µM.

Some compounds with known IC50 results, for comparison:
- Cc1coc2c1C(=O)C(=O)c1c-2ccc2c1CCCC2(C)C: 6.8
- CC(C)C1=CC(=O)c2c(ccc3c2C=CCC3(C)C)C1=O: 21.2
- C[C@H]1COC2=C1C(=O)C(=O)c1c2ccc2c1CCCC2(C)C: 10.2

Kindly review the next compound as well.
Q: Which IC50 reading was recorded for the compound Cc1cccc2c3c(ccc12)C1=C(C(=O)C3=O)[C@@H](C)CO1 [DIHYDROTANSHINONE I] ?
A: 47.7

---

molecular target: Hypoxia inducible factors; HIF-1-alpha, HIF-2-alpha (Homo sapiens, UniProt Q16665+Q99814); experiment: Inhibition of HIF1 activation in human Hep3B cells assessed as inhibition of hypoxia-induced luciferase expression after 16 hrs by reporter assay; assay type: cell-based; details: hep 3b2
quantityName: IC50 (µM)
Give bare numbers, in µM.

Some compounds with known IC50 results, for comparison:
• CC(C)C1=CC(=O)c2c(ccc3c2CCCC3(C)C)C1=O = 3.18
• C[C@H]1COC2=C1C(=O)C(=O)c1c2ccc2c1CCCC2(C)C = 1.36

Q: Request: IC50, test system Hypoxia inducible factors; HIF-1-alpha, HIF-2-alpha (Homo sapiens, UniProt Q16665+Q99814), entry Cc1cccc2c3c(ccc12)C(=O)C(C(C)C)=CC3=O
A: 10.6

---

Provide the reported pIC50 of each item.
tested on: AGS; experiment: Viability of human AGS cells under normoxic conditions after 24 hrs by MTT assay; type: functional, cell-based
Answers are plain numbers, as −log10 of the molar value.

Some molecules with known pIC50 results, for comparison:
- CC(C)C1=CC(=O)c2c(ccc3c2C=CCC3(C)C)C1=O: 4.45
- Cc1cccc2c3c(ccc12)C(=O)C(C(C)C)=CC3=O: 4.67

Kindly review the next molecule as well.
Q: Which pIC50 reading was recorded for the molecule C[C@H]1COC2=C1C(=O)C(=O)c1c2ccc2c1CCCC2(C)C ?
A: 4.87
